Values compiled from ChEMBL document CHEMBL2375276.

- Tested on: Staphylococcus aureus
- EXPERIMENT DESCRIPTION: Antibacterial activity against Staphylococcus aureus Smith assessed as growth inhibition by CLSI broth microdilution method
- Type: functional
Reported log10(MIC) by item:
READOUT NAME: log10(MIC) (log10 of the value in µg/mL)

{"COMPOUND STRING": "COC(=S)NC[C@H]1CN(c2cc(F)c(N3CCON(C(=O)CO)CC3)c(F)c2)C(=O)O1", "READOUT NAME": "log10(MIC)", "RECORDED RESULT": -0.60}
{"COMPOUND STRING": "CC(=S)NC[C@H]1CN(c2cc(F)c(N3CCNOCC3)c(F)c2)C(=O)O1", "READOUT NAME": "log10(MIC)", "RECORDED RESULT": -0.60}
{"COMPOUND STRING": "O=C(CO)N1CCN(c2c(F)cc(N3C[C@H](Cn4ccnn4)OC3=O)cc2F)CCO1", "READOUT NAME": "log10(MIC)", "RECORDED RESULT": 0.30}
{"COMPOUND STRING": "CC(=O)NC[C@H]1CN(c2ccc(N3CCNN(C(=O)CO)CC3)c(F)c2)C(=O)O1", "READOUT NAME": "log10(MIC)", "RECORDED RESULT": 0.30}
{"COMPOUND STRING": "CC(=S)NC[C@H]1CN(c2cc(F)c(N3CCON(C(=O)CO)CC3)c(F)c2)C(=O)O1", "READOUT NAME": "log10(MIC)", "RECORDED RESULT": -0.60}
{"COMPOUND STRING": "CC(=O)NC[C@H]1CN(c2cc(F)c(N3CCON(C(=O)CO)CC3)c(F)c2)C(=O)O1", "READOUT NAME": "log10(MIC)", "RECORDED RESULT": 0.30}
{"COMPOUND STRING": "COC(=S)NC[C@H]1CN(c2cc(F)c(N3CCNOCC3)c(F)c2)C(=O)O1", "READOUT NAME": "log10(MIC)", "RECORDED RESULT": -0.30}
{"COMPOUND STRING": "O=C(CO)N1CCN(c2ccc(N3C[C@H](Cn4ccnn4)OC3=O)cc2F)CCN1", "READOUT NAME": "log10(MIC)", "RECORDED RESULT": 0.60}
{"COMPOUND STRING": "CC(=O)NC[C@H]1CN(c2ccc(N3CCN(C(=O)CO)CC3)c(F)c2)C(=O)O1", "READOUT NAME": "log10(MIC)", "RECORDED RESULT": 0.00}

----------
- Tested on: Streptococcus pneumoniae
- EXPERIMENT DESCRIPTION: Antibacterial activity against Streptococcus pneumoniae SR26207 clinical isolate assessed as growth inhibition by CLSI broth microdilution method
- Type: functional
# key: entry, value: MIC

{"COMPOUND STRING": "COC(=S)NC[C@H]1CN(c2cc(F)c(N3CCNOCC3)c(F)c2)C(=O)O1", "EXPERIMENTAL SYSTEM": "Streptococcus pneumoniae", "QUAL": "=", "MIC [µg/mL]": 0.125}
{"COMPOUND STRING": "O=C1O[C@@H](CNc2ccon2)CN1c1cc(F)c(N2CCNOCC2)c(F)c1", "EXPERIMENTAL SYSTEM": "Streptococcus pneumoniae", "QUAL": "=", "MIC [µg/mL]": 0.125}
{"COMPOUND STRING": "CC(=O)NC[C@H]1CN(c2cc(F)c(N3CCNN(C(=O)CO)CC3)c(F)c2)C(=O)O1", "EXPERIMENTAL SYSTEM": "Streptococcus pneumoniae", "QUAL": "=", "MIC [µg/mL]": 0.25}
{"COMPOUND STRING": "CC(=O)NC[C@H]1CN(c2cc(F)c(N3CCON(C(=O)CO)CC3)c(F)c2)C(=O)O1", "EXPERIMENTAL SYSTEM": "Streptococcus pneumoniae", "QUAL": "=", "MIC [µg/mL]": 1}
{"COMPOUND STRING": "CC(=S)NC[C@H]1CN(c2ccc(N3CCNN(C(=O)CO)CC3)c(F)c2)C(=O)O1", "EXPERIMENTAL SYSTEM": "Streptococcus pneumoniae", "QUAL": "≤", "MIC [µg/mL]": 0.063}
{"COMPOUND STRING": "COC(=S)NC[C@H]1CN(c2cc(F)c(N3CCNN(C(=O)CO)CC3)c(F)c2)C(=O)O1", "EXPERIMENTAL SYSTEM": "Streptococcus pneumoniae", "QUAL": "≤", "MIC [µg/mL]": 0.063}
{"COMPOUND STRING": "O=C(CO)N1CCN(c2ccc(N3C[C@H](Cn4ccnn4)OC3=O)cc2F)CCN1", "EXPERIMENTAL SYSTEM": "Streptococcus pneumoniae", "QUAL": "=", "MIC [µg/mL]": 1}
{"COMPOUND STRING": "COC(=S)NC[C@H]1CN(c2ccc(N3CCNN(C(=O)CO)CC3)c(F)c2)C(=O)O1", "EXPERIMENTAL SYSTEM": "Streptococcus pneumoniae", "QUAL": "=", "MIC [µg/mL]": 0.125}
{"COMPOUND STRING": "CC(=O)NC[C@H]1CN(c2cc(F)c(N3CCNOCC3)c(F)c2)C(=O)O1", "EXPERIMENTAL SYSTEM": "Streptococcus pneumoniae", "QUAL": "=", "MIC [µg/mL]": 0.25}
{"COMPOUND STRING": "CC(=O)NC[C@H]1CN(c2ccc(N3CCNN(C(=O)CO)CC3)c(F)c2)C(=O)O1", "EXPERIMENTAL SYSTEM": "Streptococcus pneumoniae", "QUAL": "=", "MIC [µg/mL]": 1}
{"COMPOUND STRING": "O=C(CO)N1CCN(c2c(F)cc(N3C[C@H](Cn4ccnn4)OC3=O)cc2F)CCN1", "EXPERIMENTAL SYSTEM": "Streptococcus pneumoniae", "QUAL": "=", "MIC [µg/mL]": 0.5}
{"COMPOUND STRING": "CC(=S)NC[C@H]1CN(c2cc(F)c(N3CCNN(C(=O)CO)CC3)c(F)c2)C(=O)O1", "EXPERIMENTAL SYSTEM": "Streptococcus pneumoniae", "QUAL": "=", "MIC [µg/mL]": 0.063}
{"COMPOUND STRING": "O=C(CO)N1CCN(c2ccc(N3C[C@H](CNc4ccon4)OC3=O)cc2F)CCN1", "EXPERIMENTAL SYSTEM": "Streptococcus pneumoniae", "QUAL": "=", "MIC [µg/mL]": 0.5}
{"COMPOUND STRING": "O=C(CO)N1CCN(c2c(F)cc(N3C[C@H](CNc4ccon4)OC3=O)cc2F)CCN1", "EXPERIMENTAL SYSTEM": "Streptococcus pneumoniae", "QUAL": "=", "MIC [µg/mL]": 0.125}
{"COMPOUND STRING": "O=C1O[C@@H](Cn2ccnn2)CN1c1cc(F)c(N2CCNOCC2)c(F)c1", "EXPERIMENTAL SYSTEM": "Streptococcus pneumoniae", "QUAL": "=", "MIC [µg/mL]": 0.5}
{"COMPOUND STRING": "O=C(CO)N1CCN(c2c(F)cc(N3C[C@H](CNc4ccon4)OC3=O)cc2F)CCO1", "EXPERIMENTAL SYSTEM": "Streptococcus pneumoniae", "QUAL": "=", "MIC [µg/mL]": 0.25}
{"COMPOUND STRING": "CC(=O)NC[C@H]1CN(c2ccc(N3CCN(C(=O)CO)CC3)c(F)c2)C(=O)O1", "EXPERIMENTAL SYSTEM": "Streptococcus pneumoniae", "QUAL": "=", "MIC [µg/mL]": 0.125}
{"COMPOUND STRING": "CC(=S)NC[C@H]1CN(c2cc(F)c(N3CCNOCC3)c(F)c2)C(=O)O1", "EXPERIMENTAL SYSTEM": "Streptococcus pneumoniae", "QUAL": "=", "MIC [µg/mL]": 0.063}
{"COMPOUND STRING": "CC(=S)NC[C@H]1CN(c2cc(F)c(N3CCON(C(=O)CO)CC3)c(F)c2)C(=O)O1", "EXPERIMENTAL SYSTEM": "Streptococcus pneumoniae", "QUAL": "=", "MIC [µg/mL]": 0.063}
{"COMPOUND STRING": "COC(=S)NC[C@H]1CN(c2cc(F)c(N3CCON(C(=O)CO)CC3)c(F)c2)C(=O)O1", "EXPERIMENTAL SYSTEM": "Streptococcus pneumoniae", "QUAL": "=", "MIC [µg/mL]": 0.125}
{"COMPOUND STRING": "O=C(CO)N1CCN(c2c(F)cc(N3C[C@H](Cn4ccnn4)OC3=O)cc2F)CCO1", "EXPERIMENTAL SYSTEM": "Streptococcus pneumoniae", "QUAL": "=", "MIC [µg/mL]": 1}
